Listing of recorded % beta parallel by entry.
- PROTOCOL_DETAILS: CD secondary structure of GOLPH3 proteins (BestSel fits)
- Assay type: physicochemical, human
- APPLIED_CONDITIONS: 10 μM, 100 mM NaCl, 50 mM Tris pH 7.4, 1 mM TCEP, 20 °C
TEST_READOUT: % beta parallel (%)

MOLECULE	UNITS_TEXT	ENDPOINT_VALUE
GOLPH3-4G: mutant F194G/L195G/L196G/F197G with improved solubility (protein) MTSLTQRSSGLVQRRTEASRNAADKERAAGGGAGSSEDDAQSRRDEQDDDDKGDSKETRLTLMEEVLLLGLKDREGYTSFWNDCISSGLRGCMLIELALRGRLQLEACGMRRKSLLTRKVICKSDAPTGDVLLDEALKHVKETQPPETVQNWIELLSGETWNPLKLHYQLRNVRERLAKNLVEKGVLTTEKQNGGGGDMTTHPLTNNNIKQRLIKKVQEAVLDKWVNDPHRMDRRLLALIYLAHASDVLENAFAPLLDEQYDLATKRVRQLLDLDPEVECLKANTNEVLWAVVAAFTK	%	0
D247A: GOLPH3 mutant D247A; recombinant in biophysics, transfected construct in cells (protein, UniProt Q9H4A6 1-298, looked up, variant D247A) Golgi phosphoprotein 3: MTSLTQRSSGLVQRRTEASRNAADKERAAGGGAGSSEDDAQSRRDEQDDDDKGDSKETRLTLMEEVLLLGLKDREGYTSFWNDCISSGLRGCMLIELALRGRLQLEACGMRRKSLLTRKVICKSDAPTGDVLLDEALKHVKETQPPETVQNWIELLSGETWNPLKLHYQLRNVRERLAKNLVEKGVLTTEKQNFLLFDMTTHPLTNNNIKQRLIKKVQEAVLDKWVNDPHRMDRRLLALIYLAHASAVLENAFAPLLDEQYDLATKRVRQLLDLDPEVECLKANTNEVLWAVVAAFTK	%	0
D247R/D258R/D262R: recombinant GOLPH3 triple mutant D247R/D258R/D262R (protein, UniProt Q9H4A6 1-298, looked up, variant D247R D258R D262R) Golgi phosphoprotein 3: MTSLTQRSSGLVQRRTEASRNAADKERAAGGGAGSSEDDAQSRRDEQDDDDKGDSKETRLTLMEEVLLLGLKDREGYTSFWNDCISSGLRGCMLIELALRGRLQLEACGMRRKSLLTRKVICKSDAPTGDVLLDEALKHVKETQPPETVQNWIELLSGETWNPLKLHYQLRNVRERLAKNLVEKGVLTTEKQNFLLFDMTTHPLTNNNIKQRLIKKVQEAVLDKWVNDPHRMDRRLLALIYLAHASRVLENAFAPLLREQYRLATKRVRQLLDLDPEVECLKANTNEVLWAVVAAFTK	%	0
